Experiment: Maximum solubility of acetazolamide with commercial HPBCD preparations (Example 3)
Type: physicochemical
Settings: hpbcd solution, HPBCD source C, Wacker Chemical (BetaW7, HP0.9); read-out: maximum solubility
readout.kind: solubility
Dear colleague, please send the value followed by its unit.

Query block: Annotate the compound CC(=O)Nc1nnc(S(N)(=O)=O)s1 [acetazolamide] with its measured solubility.
Result block: 18 mg/mL

* * *

Test: Maximum solubility of acetazolamide with commercial HPBCD preparations (Example 3)
Assay type: physicochemical
Settings: water; read-out: maximum solubility in water
From the text: The solubility of the active agent can be determined by any of the conventional methods available. For example, solutions of the agent, prepared with and without a β-cyclodextrin derivative, can be filtered (e.g., using a 0.22 or 0.45 μm membrane filter) to eliminate undissolved agent, and subjected to chromatography (e.g., reverse-phase HPLC) to determine the concentration of agent present in the solution. […]
readout.kind: solubility (µg/mL)
Write the value in µg/mL as a bare number.

Query block: Annotate the compound CC(=O)Nc1nnc(S(N)(=O)=O)s1 [acetazolamide] with its measured solubility.
Result block: 1000

All values here come from patent US5494901A.
